# test_description: Plasma pharmacokinetics in KM12-Luc ITC tumor-bearing mice
# Assay type: in vivo, Balb/c nude mice
# measurement_conditions: Balb/c nude, mouse, in vivo, po, 30 mg/kg/day
experimental_readout: AUC(0-t) (µM·h)
Answers are plain numbers, in µM·h.

Supply measured AUC(0-t) of `CN1CCN(c2ccc(C(=O)Nc3n[nH]c4ccc(Cc5cc(F)cc(F)c5)cc34)c(NC3CCOCC3)c2)CC1` in your reply.
38.3

----------
# test_description: Plasma protein binding by equilibrium dialysis, mouse plasma
# Type: in vitro ADME
# measurement_conditions: pH 7.5
experimental_readout: fraction unbound at 5 h
One number for each entry.

Supply measured fraction unbound at 5 h of `CN1CCN(c2ccc(C(=O)Nc3n[nH]c4ccc(Cc5cc(F)cc(F)c5)cc34)c(NC3CCOCC3)c2)CC1` in your reply.
0.0034
